The measurements presented in this section are drawn from patent US11548875B2.

# system: ALDH1A2 (Homo sapiens)
# assay_details: Cell-based enzyme assay, retinoic acid production in ALDH1A2/H1299 cells
endpoint_name: EC50

Challenge: Provide value of EC50 for this record tested with ALDH1A2 (Homo sapiens): `CN(C)c1ccc(C(=O)N2CCN(c3ccc([N+](=O)[O-])c(N4CCCC4)c3)CC2)cc1`
Response given: 1.42 µM

Challenge: Provide value of EC50 for this record tested with ALDH1A2 (Homo sapiens): `O=C(c1ccc[nH]1)N1CCN(c2ccc([N+](=O)[O-])c(N3CCCC3)c2)CC1`
Response given: < 0.5 µM

Challenge: Provide value of EC50 for this record tested with ALDH1A2 (Homo sapiens): `O=C(c1cccc(Cl)c1)N1CCN(c2ccc([N+](=O)[O-])c(N3CCCC3)c2)CC1`
Response given: 0.505 µM

Challenge: Provide value of EC50 for this record tested with ALDH1A2 (Homo sapiens): `O=C(c1ccc(F)s1)N1CCN(c2ccc([N+](=O)[O-])c(N3CCCC3)c2)CC1`
Response given: 0.377 µM

Challenge: Provide value of EC50 for this record tested with ALDH1A2 (Homo sapiens): `Cn1cccc1C(=O)N1CCN(c2ccc(N)c(N3CCCCCC3)c2)CC1`
Response given: 2.58 µM

Challenge: Provide value of EC50 for this record tested with ALDH1A2 (Homo sapiens): `Cn1cccc1C(=O)N1CCN(c2ccc(-c3ccc([N+](=O)[O-])cc3)c(N3CCCCC3)c2)CC1`
Response given: 0.88 µM

Challenge: Provide value of EC50 for this record tested with ALDH1A2 (Homo sapiens): `Cn1cccc1C(=O)N1CCN(c2ccc(NC(=O)C(Cl)Cl)c(N3CCCC3)c2)CC1`
Response given: > 5 µM

Challenge: Provide value of EC50 for this record tested with ALDH1A2 (Homo sapiens): `Cn1cccc1C(=O)N1CCN(c2ccc(NC(=O)C(Cl)Cl)c(N3CCCCC3)c2)CC1`
Response given: > 5 µM

* * *

# system: ALDH1A1 (Homo sapiens, UniProt P00352)
# Sequence (P00352 1-501): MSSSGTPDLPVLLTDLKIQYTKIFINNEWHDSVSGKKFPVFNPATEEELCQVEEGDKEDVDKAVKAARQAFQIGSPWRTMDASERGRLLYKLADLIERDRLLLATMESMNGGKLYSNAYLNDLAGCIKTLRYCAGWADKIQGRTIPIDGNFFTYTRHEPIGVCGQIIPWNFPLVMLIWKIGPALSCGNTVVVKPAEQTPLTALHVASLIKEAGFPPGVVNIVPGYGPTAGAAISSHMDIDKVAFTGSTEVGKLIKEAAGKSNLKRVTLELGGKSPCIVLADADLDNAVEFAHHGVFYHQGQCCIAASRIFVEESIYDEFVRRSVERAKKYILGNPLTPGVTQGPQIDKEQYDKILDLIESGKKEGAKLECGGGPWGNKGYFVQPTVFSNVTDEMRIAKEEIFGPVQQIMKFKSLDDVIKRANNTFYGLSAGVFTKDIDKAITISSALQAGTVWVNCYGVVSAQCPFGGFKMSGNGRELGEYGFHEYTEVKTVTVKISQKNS
# assay_details: Inhibitor screening using purified enzymes: ALDH1A1 activity, retinoic acid production by HPLC
# Type: biochemical
# measurement_conditions: purified enzyme
endpoint_name: IC50 (µM)
Express it in µM; write the number only.

Challenge: Query (compound): `O=C(Nc1cccc(F)c1)c1cn(-c2ccccc2)nc1-c1ccc(CNC(=O)C(Cl)Cl)cc1` ; field requested: IC50
Response given: 2

Challenge: Query (compound): N#Cc1ccc(-n2cc(C(=O)Nc3cccc(F)c3)c(-c3ccc(NC(=O)C(Cl)Cl)cc3)n2)cc1 [Compound 316a] ; field requested: IC50
Response given: 0.249

Challenge: Query (compound): N#Cc1ccc(-n2cc(C(=O)Nc3cccc(F)c3)c(-c3ccc(NC(=O)C(Cl)Cl)cc3)n2)cc1 [Compound 310] ; field requested: IC50
Response given: 0.009

Challenge: Query (compound): `Cc1ccc(NC(=O)c2cn(-c3ccccc3)nc2-c2ccc(F)cc2)cc1` ; field requested: IC50
Response given: 0.388

Challenge: Query (compound): `O=C(c1cccc(Cl)c1)N1CCN(c2ccc([N+](=O)[O-])c(N3CCCC3)c2)CC1` ; field requested: IC50
Response given: 1.65

Challenge: Query (compound): `Cn1cccc1C(=O)N1CCN(c2ccc(NC(=O)CCl)c(N3CCCC3)c2)CC1` ; field requested: IC50
Response given: 0.3

Challenge: Query (compound): `CCN(Cc1nn(-c2ccccc2)cc1C(=O)Nc1cccc(F)c1)C(=O)C(Cl)Cl` ; field requested: IC50
Response given: 0.092

Challenge: Query (compound): `Cc1ccccc1-c1nn(-c2ccccc2)cc1C(=O)Nc1cccc(F)c1` ; field requested: IC50
Response given: 0.601

Challenge: Query (compound): `O=C(Nc1cccc(F)c1)c1cn(-c2ccccc2)nc1-c1ccc(CBr)cc1` ; field requested: IC50
Response given: 3.9

Challenge: Query (compound): `Cn1cccc1C(=O)N1CCN(c2ccc(-c3ccc([N+](=O)[O-])cc3)c(N3CCCCC3)c2)CC1` ; field requested: IC50
Response given: 1.44

Challenge: Query (compound): `O=C(c1ccccc1)N1CCN(c2ccc([N+](=O)[O-])c(N3CCCC3)c2)CC1` ; field requested: IC50
Response given: 0.675

Challenge: Query (compound): `CC(=O)c1ccc(-c2nn(-c3ccc(C#N)cc3)cc2C(=O)Nc2cccc(F)c2)cc1` ; field requested: IC50
Response given: 10.2

Challenge: Query (compound): `Cn1cccc1C(=O)N1CCN(c2ccc(N)c(N3CCCCCC3)c2)CC1` ; field requested: IC50
Response given: 0.714

Challenge: Query (compound): `O=C(c1ccc[nH]1)N1CCN(c2ccc([N+](=O)[O-])c(N3CCCC3)c2)CC1` ; field requested: IC50
Response given: 0.453

Challenge: Query (compound): `CON(C)C(=O)c1ccc(-c2nn(-c3ccc(C#N)cc3)cc2C(=O)Nc2cccc(F)c2)cc1` ; field requested: IC50
Response given: 9.44

* * *

# system: ALDH2 (Homo sapiens)
# Construct: histidine-tag (N); made in house; host or cells: bacterial expression (pETite vector, IPTG induction)
# Sequence (P05091 18-517): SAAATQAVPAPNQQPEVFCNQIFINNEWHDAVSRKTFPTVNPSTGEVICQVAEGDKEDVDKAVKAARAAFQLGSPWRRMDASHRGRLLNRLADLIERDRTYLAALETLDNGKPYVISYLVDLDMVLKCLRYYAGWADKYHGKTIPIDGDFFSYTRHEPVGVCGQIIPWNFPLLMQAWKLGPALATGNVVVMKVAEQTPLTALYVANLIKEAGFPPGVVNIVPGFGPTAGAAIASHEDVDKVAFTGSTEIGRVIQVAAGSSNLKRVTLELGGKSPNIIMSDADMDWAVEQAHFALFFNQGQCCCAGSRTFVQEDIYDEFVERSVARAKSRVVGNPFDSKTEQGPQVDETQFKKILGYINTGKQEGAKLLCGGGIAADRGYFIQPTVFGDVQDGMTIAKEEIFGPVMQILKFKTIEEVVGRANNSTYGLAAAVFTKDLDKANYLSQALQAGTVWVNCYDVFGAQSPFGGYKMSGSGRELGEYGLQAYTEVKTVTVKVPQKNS
# assay_details: Purified ALDH2 assay with propanal, NADH fluorescence
# Assay type: biochemical
# measurement_conditions: purified enzyme
Each record is given 1.0 if its reported IC50 is strictly below 20 µM. Records at or above 20 µM are given 0.0.

Challenge: API: query returns whether the compound falls strictly under 20 µM in IC50. Query: CS(=O)(=O)c1ccc(-c2nn(-c3cccc(Cl)c3)cc2C(=O)Nc2ccccc2O)cc1 [Compound 240]
Response given: 1.0

Challenge: API: query returns whether the compound falls strictly under 20 µM in IC50. Query: CC(=O)Nc1ccsc1C(=O)N1CCN(c2ccc([N+](=O)[O-])c(N3CCCC3)c2)CC1 [Compound 332]
Response given: 0.0

Challenge: API: query returns whether the compound falls strictly under 20 µM in IC50. Query: CS(=O)(=O)c1ccc(-c2nn(-c3ccccc3)cc2C(=O)Nc2ccc(F)c(F)c2)cc1 [Compound 207]
Response given: 1.0

Challenge: API: query returns whether the compound falls strictly under 20 µM in IC50. Query: O=Cc1cn(-c2ccccc2)nc1-c1ccc(O)cc1 [Cmpd 34]
Response given: 1.0

Challenge: API: query returns whether the compound falls strictly under 20 µM in IC50. Query: O=C(c1sccc1Cl)N1CCN(c2ccc([N+](=O)[O-])c(N3CCCC3)c2)CC1 [Compound 324]
Response given: 1.0

Challenge: API: query returns whether the compound falls strictly under 20 µM in IC50. Query: CS(=O)(=O)c1ccc(-c2nn(-c3cccc(F)c3)cc2C(=O)Nc2cccc(C(F)(F)F)c2)cc1 [Compound 266]
Response given: 0.0

Challenge: API: query returns whether the compound falls strictly under 20 µM in IC50. Query: CS(=O)(=O)c1ccc(-c2nn(-c3ccc(F)cc3)cc2C(=O)Nc2cccc(F)c2)cc1 [Compound 241]
Response given: 1.0

* * *

# system: UniProt:O94788
# Sequence (O94788 1-518): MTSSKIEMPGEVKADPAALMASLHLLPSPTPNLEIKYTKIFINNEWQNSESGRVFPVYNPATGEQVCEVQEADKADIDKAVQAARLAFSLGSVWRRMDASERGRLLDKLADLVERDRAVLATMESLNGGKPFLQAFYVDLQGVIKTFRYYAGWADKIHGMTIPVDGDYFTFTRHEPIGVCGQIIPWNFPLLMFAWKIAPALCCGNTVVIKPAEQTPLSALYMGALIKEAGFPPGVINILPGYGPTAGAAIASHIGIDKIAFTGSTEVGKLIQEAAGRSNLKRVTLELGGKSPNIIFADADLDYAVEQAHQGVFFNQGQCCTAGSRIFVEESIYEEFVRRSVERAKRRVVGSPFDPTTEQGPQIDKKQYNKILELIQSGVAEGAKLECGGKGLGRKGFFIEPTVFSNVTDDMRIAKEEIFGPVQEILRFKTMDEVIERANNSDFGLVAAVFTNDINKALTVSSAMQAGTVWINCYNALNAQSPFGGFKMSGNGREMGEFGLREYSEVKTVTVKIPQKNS
# assay_details: Cell-based enzyme assay, retinoic acid production in ALDH1A2/H1299 cells
Where a name gives a salt, the structure may show the parent alone.
endpoint_name: EC50 (µM)
Express it in µM; write the number only.

Challenge: Query (compound): `O=C(c1ccc(Cl)cc1)N1CCN(c2ccc([N+](=O)[O-])c(N3CCCC3)c2)CC1` ; field requested: EC50
Response given: 0.966

Challenge: Query (compound): `Cc1cc(C(=O)N2CCN(c3ccc([N+](=O)[O-])c(N4CCCC4)c3)CC2)sc1C` ; field requested: EC50
Response given: 0.862

Challenge: Query (compound): `CC(=O)n1cccc1C(=O)N1CCN(c2ccc([N+](=O)[O-])c(N3CCCC3)c2)CC1` ; field requested: EC50
Response given: 0.35

Challenge: Query (compound): `Cn1cccc1C(=O)N1CCN(c2ccc(NC(=O)CCl)c(N3CCCC3)c2)CC1` ; field requested: EC50
Response given: 0.7

Challenge: Query (compound): `O=C(c1ccccc1)N1CCN(c2ccc([N+](=O)[O-])c(N3CCCC3)c2)CC1` ; field requested: EC50
Response given: 0.293

Challenge: Query (compound): `CCc1ccc(C(=O)N2CCN(c3ccc([N+](=O)[O-])c(N4CCCC4)c3)CC2)s1` ; field requested: EC50
Response given: 0.457

Challenge: Query (compound): Nc1ccsc1C(=O)N1CCN(c2ccc([N+](=O)[O-])c(N3CCCC3)c2)CC1 [Compound 331, hydrochloride] ; field requested: EC50
Response given: 0.121
